// merged dataset of pKi values, system = Coagulation factor XI (Homo sapiens), multiple refs
pKi: −log10 of the molar value.

Solved cases below.
compound=Cc1nc(-c2ccc(C#N)cc2)n(O)c1C(=O)N[C@@H](Cc1ccccc1)C(=O)Nc1ccc(C(=O)O)cc1 result="< 4.00"
compound=COc1ccc(-n2nc(C(N)=O)cc2C(=O)Cc2ccc(-n3ccccc3=O)cc2F)cc1 result="< 4.82"

Next, consider the following compound.
Query string: Give recorded pKi with Coagulation factor XI (Homo sapiens) for the following compound: N=C(N)c1ccc2c(c1)[C@@H](c1ccccc1)C[C@@H](c1cc(N)cc(-c3ccccc3C(=O)O)c1)N2 (racemic)
Result string: 8.12
